// compounds with reported pIC50 on Histone deacetylase 1 (Homo sapiens, UniProt Q13547), multi-publication
pIC50: −log10 of the molar value.

{"COMPOUND": "CCOC(=O)N1CCC(Nc2ncc(C(=O)NO)cn2)(C(C)C)CC1", "EXPERIMENTAL TARGET": "Histone deacetylase 1 (Homo sapiens, UniProt Q13547)", "VALUE COMPARATOR": "=", "pIC50": 6.16}
{"COMPOUND": "CCCNNC(=O)c1ccc(-c2ccc(NC(=O)COCCOCCOCCOCCNc3cccc4c3C(=O)N(C3CCC(=O)NC3=O)C4=O)cc2)cc1 (centres unmarked)", "EXPERIMENTAL TARGET": "Histone deacetylase 1 (Homo sapiens, UniProt Q13547)", "VALUE COMPARATOR": "=", "pIC50": 6.90}
{"COMPOUND": "O=C(NO)c1ccc(Cn2ccc3cc(N4CCOCC4)cnc32)cc1", "EXPERIMENTAL TARGET": "Histone deacetylase 1 (Homo sapiens, UniProt Q13547)", "VALUE COMPARATOR": "=", "pIC50": 5.56}
{"COMPOUND": "COc1cc2ncnc(Nc3ccc(C(=O)Nc4cc(-c5cccs5)ccc4N)cc3)c2cc1OC", "EXPERIMENTAL TARGET": "Histone deacetylase 1 (Homo sapiens, UniProt Q13547)", "VALUE COMPARATOR": "=", "pIC50": 6.75}
{"COMPOUND": "O=C(/C=C/c1ccc(C2CCCN2CC2CCCC2)cc1)NO (centres unmarked)", "EXPERIMENTAL TARGET": "Histone deacetylase 1 (Homo sapiens, UniProt Q13547)", "VALUE COMPARATOR": "=", "pIC50": 8.05}
{"COMPOUND": "CC(=O)N1CCN(c2ccc3c(c2)C(C)(C)C(=O)N(Cc2ccc(-c4nnc(C(F)F)o4)cn2)C3=O)CC12CC2", "EXPERIMENTAL TARGET": "Histone deacetylase 1 (Homo sapiens, UniProt Q13547)", "VALUE COMPARATOR": "<", "pIC50": 5.00}
{"COMPOUND": "CN(C)[C@H]1CCN(c2ccc(C(=O)Nc3cc(-c4cccs4)ccc3N)cc2)C1", "EXPERIMENTAL TARGET": "Histone deacetylase 1 (Homo sapiens, UniProt Q13547)", "VALUE COMPARATOR": ">", "pIC50": 6.00}
{"COMPOUND": "CC(C)[C@H](C(=O)N1CCC(Nc2ncc(C(=O)NO)cn2)(c2ccccc2)CC1)c1ccccc1 (stereo in doubt)", "EXPERIMENTAL TARGET": "Histone deacetylase 1 (Homo sapiens, UniProt Q13547)", "VALUE COMPARATOR": "=", "pIC50": 6.69}
{"COMPOUND": "COC(=O)N(Cc1cccnc1)[C@H]1CCN(c2ccc(C(=O)Nc3ccccc3N)cc2)C1", "EXPERIMENTAL TARGET": "Histone deacetylase 1 (Homo sapiens, UniProt Q13547)", "VALUE COMPARATOR": "≥", "pIC50": 6.30}
{"COMPOUND": "Cc1c(Cc2ccc(C(=O)NO)cc2)c2ccccc2n1CC1CCN(CC2(F)CCN(CC(C)(C)O)CC2)CC1", "EXPERIMENTAL TARGET": "Histone deacetylase 1 (Homo sapiens, UniProt Q13547)", "VALUE COMPARATOR": "=", "pIC50": 5.17}
{"COMPOUND": "CN(C)CC(C)(C)Cn1c(CC(C)(C)C)nc2cc(/C=C/C(=O)NO)ccc21", "EXPERIMENTAL TARGET": "Histone deacetylase 1 (Homo sapiens, UniProt Q13547)", "VALUE COMPARATOR": "=", "pIC50": 7.38}
{"COMPOUND": "O=c1c(N2CCN(C3COC3)CC2)c(N(Cc2ccc(-c3nnc(C(F)F)o3)cc2F)c2ccc(F)c(F)c2)c1=O", "EXPERIMENTAL TARGET": "Histone deacetylase 1 (Homo sapiens, UniProt Q13547)", "VALUE COMPARATOR": "<", "pIC50": 5.00}
{"COMPOUND": "CC(=O)N[C@@H]1CCN(Cc2ccc(C(=O)Nc3cc(-c4cccs4)ccc3N)cc2)C1", "EXPERIMENTAL TARGET": "Histone deacetylase 1 (Homo sapiens, UniProt Q13547)", "VALUE COMPARATOR": ">", "pIC50": 6.00}
{"COMPOUND": "CC/C=C\\CCc1nc2cc(/C=C/C(=O)NO)ccc2n1CCCNC(C)C", "EXPERIMENTAL TARGET": "Histone deacetylase 1 (Homo sapiens, UniProt Q13547)", "VALUE COMPARATOR": "=", "pIC50": 6.89}
{"COMPOUND": "O=C(/C=C/c1ccc(CN2CCC(c3ccc(Cl)cc3CN3CCCC3=O)CC2)cc1)NO", "EXPERIMENTAL TARGET": "Histone deacetylase 1 (Homo sapiens, UniProt Q13547)", "VALUE COMPARATOR": "=", "pIC50": 7.57}
{"COMPOUND": "O=C(NO)c1ccc(Cn2ccc3cc(C4CCN(Cc5ccccc5)CC4)cnc32)cc1", "EXPERIMENTAL TARGET": "Histone deacetylase 1 (Homo sapiens, UniProt Q13547)", "VALUE COMPARATOR": "=", "pIC50": 5.70}
{"COMPOUND": "Cc1[nH]c2ccccc2c1C[C@H]1C[C@H](O)CN1Cc1ccc(/C=C/C(=O)NO)cc1", "EXPERIMENTAL TARGET": "Histone deacetylase 1 (Homo sapiens, UniProt Q13547)", "VALUE COMPARATOR": "=", "pIC50": 9.15}
{"COMPOUND": "O=C(/C=C/c1ccc([C@@H]2CCCN2CCc2nnn(-c3ccc([N+](=O)[O-])cc3)n2)cc1)NO", "EXPERIMENTAL TARGET": "Histone deacetylase 1 (Homo sapiens, UniProt Q13547)", "VALUE COMPARATOR": "=", "pIC50": 7.17}
{"COMPOUND": "O=c1c2ccccc2n(CC2CCN(C3COC3)CC2)c(=O)n1Cc1ccc(-c2nnc(C(F)F)o2)cn1", "EXPERIMENTAL TARGET": "Histone deacetylase 1 (Homo sapiens, UniProt Q13547)", "VALUE COMPARATOR": "<", "pIC50": 5.00}
{"COMPOUND": "CCC(CC)CN(C)CCn1cnc2cc(/C=C/C(=O)NO)ccc21", "EXPERIMENTAL TARGET": "Histone deacetylase 1 (Homo sapiens, UniProt Q13547)", "VALUE COMPARATOR": "=", "pIC50": 7.57}
{"COMPOUND": "CCC(=O)CCCCC[C@H](NC(=O)Cc1c(C)[nH]c2ccc(OC)cc12)c1ncc(-c2ccccc2)o1", "EXPERIMENTAL TARGET": "Histone deacetylase 1 (Homo sapiens, UniProt Q13547)", "VALUE COMPARATOR": ">", "pIC50": 7.00}
{"COMPOUND": "Nc1ccc(-c2ccncc2)cc1NC(=O)c1nc(N2CCNCC2)cs1", "EXPERIMENTAL TARGET": "Histone deacetylase 1 (Homo sapiens, UniProt Q13547)", "VALUE COMPARATOR": "<", "pIC50": 6.30}
{"COMPOUND": "CCc1nc2cc(F)c(/C=C/C(=O)NO)cc2c(=O)n1-c1ccc(Br)cc1C", "EXPERIMENTAL TARGET": "Histone deacetylase 1 (Homo sapiens, UniProt Q13547)", "VALUE COMPARATOR": "=", "pIC50": 5.29}
{"COMPOUND": "CC(C)(C)CCN1CCN(c2cnc3c(ccn3Cc3ccc(C(=O)NO)cc3)c2)CC1", "EXPERIMENTAL TARGET": "Histone deacetylase 1 (Homo sapiens, UniProt Q13547)", "VALUE COMPARATOR": "=", "pIC50": 5.84}
{"COMPOUND": "CCC(=O)CCCCC[C@H](NC(=O)C(C)n1nc(C)cc1C)c1ncc(-c2cc3ccccc3nc2OC)o1 (some centres unmarked)", "EXPERIMENTAL TARGET": "Histone deacetylase 1 (Homo sapiens, UniProt Q13547)", "VALUE COMPARATOR": ">", "pIC50": 7.00}
{"COMPOUND": "O=C(NO)c1ccc(Cn2ccc3c(-c4ccc(CN5CCOCC5)cc4)ccnc32)cc1", "EXPERIMENTAL TARGET": "Histone deacetylase 1 (Homo sapiens, UniProt Q13547)", "VALUE COMPARATOR": "=", "pIC50": 6.11}
{"COMPOUND": "O=C(NO)c1ccc(Cn2ccc3c(C4CCN(Cc5cccnc5)CC4)ccnc32)cc1", "EXPERIMENTAL TARGET": "Histone deacetylase 1 (Homo sapiens, UniProt Q13547)", "VALUE COMPARATOR": "=", "pIC50": 6.17}
{"COMPOUND": "CC(C)CN1CCC(c2cnc3c(ccn3Cc3ccc(C(=O)NO)cc3)c2)CC1", "EXPERIMENTAL TARGET": "Histone deacetylase 1 (Homo sapiens, UniProt Q13547)", "VALUE COMPARATOR": "=", "pIC50": 5.95}
